experiment: Mouse pharmacokinetic test; format: in vivo, ICR mice; conditions: male, ICR, iv; mouse plasma, i.v. 2.5 mg/kg
Listed compounds paired with reported half-life
Write it as a number; the unit min goes unstated.

In the examples that follow, each entry is paired with its recorded half-life.
compound	unit descriptor	half-life
COn1cnc2ccc(Oc3c(F)ccc(NS(=O)(=O)N4CC5(CCC5)C4)c3C#N)cc2c1=O [Compound 7]	min	587
Cn1cnc2ccc(Oc3c(F)ccc(NS(=O)(=O)N4CC5(CC5)C4)c3C#N)cc2c1=O [Compound 5]	min	1810
N#Cc1c(NS(=O)(=O)N2CC3(CCC3)C2)ccc(F)c1Oc1ccc2ncn(CCF)c(=O)c2c1 [Compound 26]	min	768
N#Cc1c(NS(=O)(=O)N2CC3(CCC3)C2)ccc(F)c1Oc1ccc2ncn(CC(F)F)c(=O)c2c1 [Compound 10]	min	720

Return value of half-life for input COn1cnc2ccc(Oc3c(F)ccc(NS(=O)(=O)N4CC[C@@H](F)C4)c3C#N)cc2c1=O [Compound 4] , no commentary.
316

Return value of half-life for input COn1cnc2ccc(Oc3c(F)ccc(NS(=O)(=O)N4CC5(CC5)C4)c3C#N)cc2c1=O [Compound 8] , no commentary.
515
